Record form. Attribute: Kd. Fill in for each entry.
Biological target: T1, TGFβ3 (R&D Systems) (Homo sapiens (Human), UniProt P10600 301-412, Active TGFβ3 is a disulfide-linked homodimer of this chain; one copy is given.)
T1 construct: also called TGFB3
T1 sequence: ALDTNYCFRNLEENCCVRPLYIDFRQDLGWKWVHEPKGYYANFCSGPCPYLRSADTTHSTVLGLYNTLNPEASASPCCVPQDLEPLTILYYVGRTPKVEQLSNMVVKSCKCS
Experiment: SPR full titration
Write it as a number; the unit nM goes unstated.

Per the records, this binder ( affinity matured HcLb 261 (antibody, V domains shown, full IgG; constant regions not restated) VH: EVQLVQSGAEVKKPGASVKVSCKTSGYTFMTYWMNWVRQAPGAGLDWMGQIFPAWGSTNYNEMFEGRVTLTADTSTSTAYMELSSLRAGDIAVYYCARGYGNYALDAMDYWGQGTLVTVSS VL: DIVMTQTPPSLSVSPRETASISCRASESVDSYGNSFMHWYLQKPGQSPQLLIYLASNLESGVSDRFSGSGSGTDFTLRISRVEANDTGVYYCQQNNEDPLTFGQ ) has Kd equal to 0.87

Per the records, this binder ( affinity matured HcLb 263 (antibody, V domains shown, full IgG; constant regions not restated) VH: EVQLVQSGAEVKKPGASVKVSCKTSGYIFITYWMNWVRQAPGAGLDWMGQIFPAWGSTNYNEMFEGRVTLTADTSTSTAYMELSSLRAGDIAVYYCARGYGNYALDAMDYWGQGTLVTVSS VL: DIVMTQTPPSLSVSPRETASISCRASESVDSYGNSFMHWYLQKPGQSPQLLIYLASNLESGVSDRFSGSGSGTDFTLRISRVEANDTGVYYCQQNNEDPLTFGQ ) has Kd equal to 0.37

Per the records, this binder ( affinity matured HcLb 260 (antibody, V domains shown, full IgG; constant regions not restated) VH: SEVQLVQSGAEVKKPGASVKVSCKTSGYTFITYWMNWVRQAPGAGLDWMGQIFPAWGVTNYNEMFEGRVTLTADTSTSTAYMELSSLRAGDIAVYYCARGYGNYALDAMDYWGQGTLVTVSS VL: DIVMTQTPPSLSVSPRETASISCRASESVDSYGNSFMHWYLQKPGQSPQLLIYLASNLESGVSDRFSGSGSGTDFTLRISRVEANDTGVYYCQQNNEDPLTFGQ ) has Kd equal to 0.79
